- TARGET OF ASSAY: SARS-CoV-2 Nsp13 (Severe acute respiratory syndrome coronavirus 2, UniProt P0DTD1)
- Construct: its nonstructural protein 13 (Nsp13) remains a clinically untapped target; His6-Zb-TEV (N, cleaved yes); host or cells: E. coli BL21 (DE3)
- ASSAY COMMENT: biochemical
- APPLIED CONDITIONS: 25 nM Nsp13, 0.01% Tween-20; read-out: ATPase inhibition IC50
pIC50: −log10 of the molar value.

| SMILES CODE | pIC50 |
| --- | --- |
| CNC(=O)c1cc(COc2nnc(Nc3ccc(Cl)cc3)c3ccoc23)ccn1 | ~3.94 |
